The origin of these recorded values is patent US20200247894A1.

# testSystem: T1, D1 domain of human IL-2Rγ extracellular domain expressed with a C-terminal myc-myc-hexahistidine tag (human)
# T1 construct: also called human IL2Rγ domain 1
# T1 chain: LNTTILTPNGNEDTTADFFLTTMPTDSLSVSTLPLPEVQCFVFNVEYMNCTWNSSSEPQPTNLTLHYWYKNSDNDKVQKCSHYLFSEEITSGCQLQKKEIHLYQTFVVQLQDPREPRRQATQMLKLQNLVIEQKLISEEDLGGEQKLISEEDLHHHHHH
# experimentSummary: SPR, mAb captured on anti-hFc, 37 C
Listed here are binders together with their documented koff.
Respond with the bare value in s⁻¹.

binder="H4H12884P (antibody, human IgG4 S228P, kappa, V domains shown, human IgG4) VH: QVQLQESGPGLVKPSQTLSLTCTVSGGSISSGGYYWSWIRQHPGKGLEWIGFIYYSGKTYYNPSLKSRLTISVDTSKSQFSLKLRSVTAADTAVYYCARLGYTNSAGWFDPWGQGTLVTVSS VL: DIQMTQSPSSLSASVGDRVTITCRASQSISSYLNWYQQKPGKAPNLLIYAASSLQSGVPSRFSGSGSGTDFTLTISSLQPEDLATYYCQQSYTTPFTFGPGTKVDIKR" recordedendpoint=koff units=s⁻¹ valuereported=0.00442
binder="H4H12889P (antibody, human IgG4 S228P, kappa, V domains shown, human IgG4; also called REGN7257) VH: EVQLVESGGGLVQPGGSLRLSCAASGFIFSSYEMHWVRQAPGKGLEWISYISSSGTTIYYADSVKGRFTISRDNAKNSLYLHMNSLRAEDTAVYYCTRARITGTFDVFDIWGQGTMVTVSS VL: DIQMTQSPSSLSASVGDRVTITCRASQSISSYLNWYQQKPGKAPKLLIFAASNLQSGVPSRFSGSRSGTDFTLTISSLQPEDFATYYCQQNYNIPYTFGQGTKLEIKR" recordedendpoint=koff units=s⁻¹ valuereported=0.00507
binder="H4H12871P (antibody, human IgG4 S228P, kappa, V domains shown, human IgG4; also called REGN9434) VH: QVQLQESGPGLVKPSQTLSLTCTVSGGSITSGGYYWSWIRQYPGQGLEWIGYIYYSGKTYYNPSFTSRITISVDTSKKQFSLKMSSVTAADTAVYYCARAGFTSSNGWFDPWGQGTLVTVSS VL: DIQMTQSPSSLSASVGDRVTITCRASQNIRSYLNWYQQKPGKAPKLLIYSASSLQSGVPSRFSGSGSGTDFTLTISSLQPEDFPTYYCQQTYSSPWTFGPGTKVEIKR" recordedendpoint=koff units=s⁻¹ valuereported=0.0036

Task: Please report the recorded koff for H4H12863P (antibody, human IgG4 S228P, kappa, V domains shown, human IgG4) VH: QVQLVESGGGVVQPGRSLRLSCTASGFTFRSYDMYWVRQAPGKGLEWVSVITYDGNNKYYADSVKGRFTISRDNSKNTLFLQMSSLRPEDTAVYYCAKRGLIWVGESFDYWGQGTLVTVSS VL: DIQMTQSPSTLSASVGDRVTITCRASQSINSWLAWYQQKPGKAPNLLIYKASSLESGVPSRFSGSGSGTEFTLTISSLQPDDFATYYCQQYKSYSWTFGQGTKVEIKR .
Output: 0.00221
